For each record, write down the corresponding Ki.
- assay_system: rat mGlu2 receptor (Rattus norvegicus, UniProt P31421)
- Sequence (P31421 19-872): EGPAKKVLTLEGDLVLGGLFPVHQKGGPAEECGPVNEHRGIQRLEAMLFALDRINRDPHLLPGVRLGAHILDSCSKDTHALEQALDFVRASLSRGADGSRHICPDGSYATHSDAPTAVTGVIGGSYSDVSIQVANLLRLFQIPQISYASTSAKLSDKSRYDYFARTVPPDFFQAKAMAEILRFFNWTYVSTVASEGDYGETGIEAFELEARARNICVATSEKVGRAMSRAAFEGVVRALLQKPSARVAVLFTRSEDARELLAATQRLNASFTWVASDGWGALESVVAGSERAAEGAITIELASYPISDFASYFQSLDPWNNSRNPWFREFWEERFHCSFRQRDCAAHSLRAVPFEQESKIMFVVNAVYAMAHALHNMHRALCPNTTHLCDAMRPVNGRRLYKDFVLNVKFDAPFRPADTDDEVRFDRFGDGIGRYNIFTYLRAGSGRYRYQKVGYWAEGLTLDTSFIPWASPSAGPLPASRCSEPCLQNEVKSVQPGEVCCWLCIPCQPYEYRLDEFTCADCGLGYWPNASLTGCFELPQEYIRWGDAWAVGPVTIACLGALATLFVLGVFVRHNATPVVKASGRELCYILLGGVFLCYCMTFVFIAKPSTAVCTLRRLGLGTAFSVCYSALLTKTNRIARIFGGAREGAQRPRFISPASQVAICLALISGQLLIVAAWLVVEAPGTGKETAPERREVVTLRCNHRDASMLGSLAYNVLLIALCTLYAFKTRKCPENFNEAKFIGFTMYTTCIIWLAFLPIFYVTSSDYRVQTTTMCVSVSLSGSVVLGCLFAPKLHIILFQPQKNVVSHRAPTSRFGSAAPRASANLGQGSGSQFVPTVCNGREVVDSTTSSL
One number for each entry, in nM.

smiles_repr: CCn1c(C(O)(C2CC2)C2CC2)nc(-c2ccncc2)c1-c1ccc(Cl)cc1
Ki [nM]: 111
--
smiles_repr: CCn1c(-c2c(Cl)cccc2Cl)nc(-c2ccncc2)c1-c1ccc(C)cc1
Ki [nM]: 13

Please examine the following record next.
State the recorded Ki for this entry: CCCC(CCC)c1nc(-c2ccncc2)c(-c2ccc(Cl)cc2)n1CC
49

---

For each record, write down the corresponding melting point.

Before answering, review these 5 worked examples.
smiles_repr: CCn1c(-c2ccc(C(F)(F)F)cc2C(F)(F)F)nc(-c2ccncc2)c1-c1ccc(Cl)cc1
melting point: 148 to 150 °C
--
smiles_repr: C=CCn1c(-c2c(C)cc(C)cc2C)nc(-c2ccncc2)c1-c1ccc(C(F)(F)F)cc1
melting point: 209 to 210 °C
--
smiles_repr: CCn1c(-c2c(C)cc(C)cc2C)nc(-c2ccncc2)c1-c1ccc(Cl)cc1Cl
melting point: 191 to 193 °C
--
smiles_repr: CCn1c(-c2ccnc3ccccc23)nc(-c2ccncc2)c1-c1ccc(Cl)cc1
melting point: 167 to 169 °C
--
smiles_repr: CCn1c(-c2c(OC)cc(OC)cc2OC)nc(-c2ccncc2)c1-c1ccc(Cl)cc1
melting point: 255 to 256 °C

For every listed record, write down its melting point.
1. OCCCn1c(-c2c(Cl)cccc2Cl)nc(-c2ccncc2)c1-c1ccc(Cl)cc1
2. CCCn1c(-c2c(C)cc(C)cc2C)nc(-c2ccncc2)c1-c1ccc(C)cc1
3. C=CCn1c(-c2c(C)cc(C)cc2C)nc(-c2ccncc2)c1-c1ccc(Cl)cc1
4. Cc1ccc(-c2c(-c3ccncc3)nc(-c3c(C)cc(C)cc3C)n2C)cc1

["233 to 235 °C", "134 to 136 °C", "151 to 154 °C", "204 to 207 °C"]

For every listed record, write down its melting point.
1. CCCn1c(-c2c(Cl)cccc2Cl)nc(-c2ccncc2)c1-c1ccc(Cl)cc1
2. CCn1c(-c2ccccc2Cl)nc(-c2ccncc2)c1-c1ccc(Cl)cc1

1. 220 to 222 °C
2. 144 to 147 °C

For every listed record, write down its melting point.
1. CCn1c(C(O)(c2cccc(C(F)(F)F)c2)c2cccc(C(F)(F)F)c2)nc(-c2ccncc2)c1-c1ccc(Cl)cc1
2. CCn1c(-c2c(C)cccc2C)nc(-c2ccncc2)c1-c1ccc(Cl)cc1

1: 193 to 195 °C; 2: 171 to 173 °C
